system: SK-MEL-2 melanoma; test: NCI-60 one-dose screen, 48 h; conditions: 10 µM unless noted
The panel holds about 83,000 compounds, 20% with a hit somewhere; the sample as a whole holds those more often. Active and inactive are the calls of the source. How the source made its calls: active means growth percent below 10; inactive means the rest.
Outcomes: yes (1) (active), no (0) (inactive)

compound=CCOC(=O)Nc1cc(-c2ccc(C)c(NS(C)(=O)=O)c2)nn2c(C)nnc12 qualitative_label="no (0)"
compound=CCN(CC)c1ccc(N=C2C=CC(=O)C=C2NC(C)=O)cc1 qualitative_label="no (0)"
compound=CC(C)Sc1nc(-c2ccc(Br)cc2)c(C#N)c(N2CCCCC2)n1 qualitative_label="no (0)"
compound=COCCCNS(=O)(=O)c1ncnc2nc[nH]c12 qualitative_label="no (0)"
compound="O=CN1N=C(c2ccc(Nc3ccnc4cc(Cl)ccc34)cc2)CC1c1ccc(Cl)cc1 (stereo not given)" qualitative_label="no (0)"
compound=COc1cc(NC(=O)NCc2ccco2)ccc1-c1ccc(NC(=O)NCc2ccco2)cc1OC qualitative_label="no (0)"
compound=CCCCCc1c(C)[nH]c(/C=C2\N=C(c3ccc[nH]3)C=C2Oc2ccc(Cl)cc2)c1C qualitative_label="yes (1)"
compound=CCOC(=O)Nc1ccc2c3c(cccc13)-c1ccccc1-2 qualitative_label="no (0)"
compound="CCSCC1CC(O)(c2ccccc2)C(c2ccccc2)C(c2ccc(Cl)cc2)O1 (stereo not given)" qualitative_label="no (0)"
compound=FC(F)(F)c1ccc(-c2cnc(-c3nn[nH]n3)nc2NC2CCCCCC2)cc1 qualitative_label="no (0)"
compound=[N-]=[N+]=NCc1cccc(/C(O)=C/C(=O)C(=O)O)c1 qualitative_label="no (0)"
compound=N#Cc1ccc(-c2csc(Nc3ccc4nc5n(c(=O)c4c3)CCC5)n2)cc1 qualitative_label="no (0)"
compound=COc1cnc2c(c1)C(=O)c1c-2n(CCCN2CCNCC2)c(=O)c2cc(F)ccc12 qualitative_label="yes (1)"
compound="OC(c1ccccc1)C(NCc1ccccc1)c1ccccc1 (stereo not given)" qualitative_label="no (0)"
compound=CNc1nc(NC2CCCC2)nc(Sc2ccc(OC)cc2)n1 qualitative_label="yes (1)"
compound=O=C(Oc1cccc2ccccc12)c1ccccc1C(=O)c1ccccc1 qualitative_label="no (0)"
compound=COc1ccc([N+](=O)[O-])c(S(=O)(=O)c2ccc(Cl)cc2)n1 qualitative_label="no (0)"
compound=NS(=O)(=O)N(c1cc(C(F)(F)F)cc(C(F)(F)F)c1)C1CCN(Cc2ccc(C(F)(F)F)cc2)CC1 qualitative_label="no (0)"
compound=CC(C)N(Cc1ccccc1)c1c(Cl)ssc1=O qualitative_label="no (0)"
compound=COc1cc(/C=C2\SC(N3CCCCC3)=NC2=O)ccc1OCCCCCCOc1ccc(/C=C2\SC(N3CCCCC3)=NC2=O)cc1OC qualitative_label="yes (1)"
compound="O=C1CSC(c2ccccc2O)N1c1nnc(Cn2ccnc2)o1 (stereo not given)" qualitative_label="no (0)"
compound="CCN1CC2=C(Nc3nc(SC)[nH]c(=O)c3C2c2cc(OC)c(OC)c(OC)c2)/C(=C/c2cc(OC)c(OC)c(OC)c2)C1 (stereo not given)" qualitative_label="no (0)"
compound=C=CCN(/C=C/CN(CC=C)CC=C)CC=C qualitative_label="no (0)"
compound=COc1ccc(CCN2C(=O)CCC3=C2CCCC3=O)cc1OC qualitative_label="no (0)"
compound=Fc1ccc(-c2nn3c(-c4cc(C(F)(F)F)cc(C(F)(F)F)c4)nnc3s2)cc1 qualitative_label="yes (1)"
compound=C/C(=C\CCc1ccsc1)CC/C=C(\C)CCCN1CCSCC1 qualitative_label="no (0)"
compound="CC1C(C)N(C(=O)CCl)c2ccccc2N1C(=O)CCl (stereo not given)" qualitative_label="yes (1)"
compound=Cc1ccc(S(=O)(=O)NCCN2c3nc4ccccc4cc3Sc3cc4ccccc4nc32)cc1 qualitative_label="no (0)"
compound="COc1cc(/C=C/C(=O)C(C(=O)/C=C/c2ccc(OC(=O)CCNC34CC5CC(CC(C5)C3)C4)c(OC)c2)C(=O)CCNC23CC4CC(CC(C4)C2)C3)ccc1OC(=O)CCNC12CC3CC(CC(C3)C1)C2 (stereo not given)" qualitative_label="yes (1)"
compound=O=C(CSc1ncc(-c2ccccc2)n1-c1ccccc1)Nc1ccc(-c2nc3ccccc3s2)cc1 qualitative_label="no (0)"
compound=COC(=O)[C@H]1[C@H]2C[C@@H]3c4[nH]c5cc(OC)ccc5c4CCN3C[C@H]2C[C@@H](OC(=O)/C=C/c2cc(OC)c(OC)c(OC)c2)[C@@H]1OC qualitative_label="no (0)"
compound=COc1cnc2c(c1)C(=O)c1c-2n(CCCN2CCOCC2)c(=O)c2cc(F)ccc12 qualitative_label="no (0)"
compound=Cc1ccc(-c2c3c(N)nc(-c4ccncc4)nc3nc3c2c(C)nn3-c2ccccc2)cc1 qualitative_label="yes (1)"
compound="O=C(CC(C(=O)c1ccccc1)N1CCN(Cc2ccccc2)CC1)c1ccccc1 (stereo not given)" qualitative_label="no (0)"
compound=O=Cc1ccccc1C(=O)O qualitative_label="no (0)"
compound=O=C1C(=O)/C(=C/c2ccccc2)CCCCCC/C1=C/c1ccccc1 qualitative_label="no (0)"
compound=COc1ccc(NS(=O)(=O)N2CCCCC2)cc1 qualitative_label="no (0)"
compound="O=c1oc2c(cc1-c1ccc([N+](=O)[O-])cc1)C(O)Oc1ccccc1-2 (stereo not given)" qualitative_label="no (0)"
compound=CC(=O)Nc1cc(C(c2ccccc2)c2ccccc2)cc(C(c2ccccc2)c2ccccc2)c1C qualitative_label="no (0)"
compound=CCSc1ncc(Br)c(Sc2nc(N)nc3nc[nH]c23)n1 qualitative_label="no (0)"

* * *

tested on: HS 578T breast; assay: NCI-60 one-dose screen, 48 h (100 = growth as untreated, 0 = no growth, -100 = all killed); conditions: 10 µM unless noted
About 83,000 compounds went through this panel and 20% of them were active in at least one assay; those are over-represented in the sample as a whole.
# growth listing for each entry below
OBSERVED_PROPERTY: growth (%)

molecule=NC(=O)c1cc(Br)cc(Br)c1NS(=O)(=O)c1ccccc1 units_symbol=% experimental_value=105
molecule=N#Cc1c(-c2ccccc2)cc(-c2ccccc2)n(CCCC(=O)O)c1=O units_symbol=% experimental_value=107
molecule=O=C(O)CNC(=O)C1(N2C(=O)c3ccccc3C2=O)CCCC1 units_symbol=% experimental_value=128
molecule=Cc1ccc2nc(SCC(=O)Nc3ccc(-c4nc5ccccc5s4)c(Cl)c3)[nH]c2c1 units_symbol=% experimental_value=110
molecule="CN[C@@H]1C(OC2[C@H](O[C@H]3[C@H](O)[C@@H](O)[C@H](N=C(N)N)[C@@H](O)[C@@H]3N=C(N)N)OC(C)[C@]2(O)CO)OC(CO)C(O)C1O (stereo not given in full)" units_symbol=% experimental_value=112
molecule=Cc1ccc(-c2c3c(N)nc(-c4ccncc4)nc3nc3c2c(C)nn3-c2ccccc2)cc1 units_symbol=% experimental_value=32.7
molecule=NC(=NCCCCCCN=C(N)/N=C(\N)Nc1ccc(Cl)cc1)/N=C(\N)Nc1ccc(Cl)cc1 units_symbol=% experimental_value=18.1
molecule=c1ccc(CN=C(NCc2ccccc2)NCc2ccccc2)cc1 units_symbol=% experimental_value=96.7
molecule=O=c1sc2ncnc3ncn1c32 units_symbol=% experimental_value=72.7
molecule=Cn1cc(NC(=O)Nc2cc(C(=O)O)n(C)c2)cc1C(=O)O units_symbol=% experimental_value=108

* * *

system: T-47D breast; assay: NCI-60 one-dose screen, 48 h; conditions: 10 µM unless noted
Compounds without any hit were thinned out: in the full panel of roughly 83,000, 20% have a hit. Activity calls are given as the source filed them. Rule for the calls: active = growth percent below 10; inactive = the rest.
Outcomes: true (1) for active, false (0) for inactive

compound=Cc1ccc(-c2c3c(N)nc(-c4ccncc4)nc3nc3c2c(C)nn3-c2ccccc2)cc1 target_desc="T-47D breast" qualitative_label="false (0)"
compound="Nc1nc(NC2CC2)c2ncn(C3C=CC(CO)C3)c2n1 (stereo unspecified)" target_desc="T-47D breast" qualitative_label="false (0)"
compound=COc1cc(/C=C2\SC(N3CCCCC3)=NC2=O)ccc1OCCCCCCOc1ccc(/C=C2\SC(N3CCCCC3)=NC2=O)cc1OC target_desc="T-47D breast" qualitative_label="false (0)"
compound=O=C1NC(=S)S/C1=C\c1cc(Br)ccc1O target_desc="T-47D breast" qualitative_label="false (0)"
compound=O=C(O)c1ccc(CNS(=O)(=O)c2ccc3ccccc3c2)cc1 target_desc="T-47D breast" qualitative_label="false (0)"
compound=COc1cnc2c(c1)C(=O)c1c-2n(CCCN2CCOCC2)c(=O)c2cc(F)ccc12 target_desc="T-47D breast" qualitative_label="true (1)"
compound=FC(F)(F)c1cc(-c2nnc3n2N=C(N2CCCC2)CS3)cc(C(F)(F)F)c1 target_desc="T-47D breast" qualitative_label="false (0)"
compound=O=[N+]([O-])c1ccc(NS(=O)(=O)c2ccc(Cl)c(Cl)c2)cc1 target_desc="T-47D breast" qualitative_label="false (0)"
compound=COc1ccc(C(=O)/C=C/c2ccc(C)cc2)cc1OC target_desc="T-47D breast" qualitative_label="false (0)"
compound=Cc1cccc2nnc(-c3ccccc3)n12 target_desc="T-47D breast" qualitative_label="false (0)"
compound=COc1cc(/C=C/C(=O)CC(=O)/C=C/c2ccc(OC(=O)CCNC34CC5CC(CC(C5)C3)C4)c(OC)c2)ccc1OC(=O)CCNC12CC3CC(CC(C3)C1)C2 target_desc="T-47D breast" qualitative_label="false (0)"
compound=Cc1ccc(/C=C/C(=O)c2ccc(F)cc2)s1 target_desc="T-47D breast" qualitative_label="false (0)"
compound=Cc1nn2c(/C=C3/C(=O)Nc4cc(Cl)ccc43)c(-c3ccccc3)nc2s1 target_desc="T-47D breast" qualitative_label="true (1)"
compound=COc1ccc(-c2c3c(N)nc(-c4ccncc4)nc3nc3c2c(C)nn3-c2ccccc2)cc1 target_desc="T-47D breast" qualitative_label="false (0)"
compound=Nc1nc(Nc2ccccc2SSc2ccccc2Nc2nc(N)nc(C(Cl)(Cl)Cl)n2)nc(C(Cl)(Cl)Cl)n1 target_desc="T-47D breast" qualitative_label="false (0)"
compound="CC(=O)N1N=C(c2ccc(Nc3ccnc4cc(Cl)ccc34)cc2)CC1c1ccc(Cl)cc1 (stereo unspecified)" target_desc="T-47D breast" qualitative_label="false (0)"
compound=COc1ccc(-c2nnc3c4[nH]cnc4ncn23)c(OC)c1 target_desc="T-47D breast" qualitative_label="false (0)"
compound=Nc1ccccc1-c1ccn[nH]1 target_desc="T-47D breast" qualitative_label="false (0)"
compound=Nc1nc(Nc2ccccc2SSc2ccccc2Nc2nc(N)nc(-c3ccc(I)cc3)n2)nc(-c2ccc(I)cc2)n1 target_desc="T-47D breast" qualitative_label="false (0)"
compound=CCN(CC)CCNCC(=O)Oc1ccc(/C=C/C(=O)CC(=O)/C=C/c2ccc(OC(=O)CNCCN(CC)CC)c(OC)c2)cc1OC target_desc="T-47D breast" qualitative_label="false (0)"
compound=Cc1ccc(-c2csc(N)n2)cc1 target_desc="T-47D breast" qualitative_label="false (0)"
compound=CNc1nc(NC2CCCC2)nc(Sc2ccc(OC)cc2)n1 target_desc="T-47D breast" qualitative_label="false (0)"
compound=CCNCCCn1c2c(c3ccc(F)cc3c1=O)C(=O)c1cc(OC)cnc1-2 target_desc="T-47D breast" qualitative_label="true (1)"
compound=C/C(=C\CCc1ccoc1)CC/C=C(\C)CCCNc1ccc(F)cc1 target_desc="T-47D breast" qualitative_label="false (0)"
compound="NC(=O)NS(=O)(=O)c1ccc(N2N=C(C(F)(F)F)CC2c2cc(C(F)(F)F)cc(C(F)(F)F)c2)cc1 (stereo unspecified)" target_desc="T-47D breast" qualitative_label="false (0)"
compound=CCc1ccc(-c2nc(SCC(=O)NC3CCCCC3)n[nH]2)cc1 target_desc="T-47D breast" qualitative_label="false (0)"
compound=O=C1/C(=C/c2cccc(Cl)c2)CCc2ccccc21 target_desc="T-47D breast" qualitative_label="false (0)"
compound=CSc1nc2nc3c(c(-c4ccc(C)cc4)c2c(=O)[nH]1)CN(C)C/C3=C\c1ccc(C)cc1 target_desc="T-47D breast" qualitative_label="false (0)"
compound=CCOC(=O)CCN(c1c(Cl)ssc1=O)C(C)C target_desc="T-47D breast" qualitative_label="false (0)"
compound=CC(=O)Nc1ccc(C(=O)COc2ccc(/C=C3\CCc4ccccc4C3=O)cc2)cc1 target_desc="T-47D breast" qualitative_label="false (0)"
compound=C(=C1c2ccccc2-c2ccccc21)c1ccncc1 target_desc="T-47D breast" qualitative_label="false (0)"
compound=CCOC(=O)c1cnc2c(C)cc(C)cc2c1NCCCN(C)C target_desc="T-47D breast" qualitative_label="false (0)"
compound=COc1ccc(C(=O)COc2cccc(/C=C3\CSc4ccc(Cl)cc4C3=O)c2)cc1 target_desc="T-47D breast" qualitative_label="false (0)"
compound=O=C(CN1CCN(c2ccc(Cl)cc2)CC1)N1CCN(c2nnc(-c3ccccc3)c(-c3ccccc3)n2)CC1 target_desc="T-47D breast" qualitative_label="false (0)"
compound=COc1c(Br)cc(C(c2cc(Br)c(OC)c(Br)c2)c2ccccc2C(=O)O)cc1Br target_desc="T-47D breast" qualitative_label="false (0)"
compound=Cc1onc(-c2ccccc2Cl)c1C(=O)N[C@@H]1C(=O)N2[C@@H]1SC(C)(C)[C@@H]2C(=O)O target_desc="T-47D breast" qualitative_label="false (0)"
compound=COc1cnc2c(c1)C(=O)c1c-2n(CCCN2CCCC2)c(=O)c2cc(F)ccc12 target_desc="T-47D breast" qualitative_label="true (1)"
compound=COc1ccc(NC(=O)c2ccc(-c3ccccc3)cc2)c(C(N)=O)c1 target_desc="T-47D breast" qualitative_label="false (0)"
compound=N#Cc1c(-c2ccccc2)cc(-c2ccccc2)n(CC(=O)O)c1=O target_desc="T-47D breast" qualitative_label="false (0)"
compound=COc1ccc(Cl)cc1Nc1nc(C(F)(F)F)ccc1C(=O)N/N=C/c1c(Cl)cccc1Cl target_desc="T-47D breast" qualitative_label="false (0)"
compound=COP(=O)(OC)C(c1ccc(O)cc1)(c1ccc(O)cc1)c1ccc(O)cc1 target_desc="T-47D breast" qualitative_label="false (0)"
